Just for reference, ChEMBL document CHEMBL2062490 is where these values come from.

test: Antagonist activity at AT1 receptor in rat uterus assessed inhibition of ANG II-induced contraction
Value type: pA2

Below: 2 molecules and their reported pA2.
Substance smiles: CCCCc1cnc(CO)n1Cc1ccc(-c2ccccc2-c2nn[nH]n2)cc1
pA2: 7.97

Substance smiles: CCCCc1cnc(CO)n1Cc1ccc(-c2ccccc2C(=O)O)cc1
pA2: 6.19

# lookup: pA2 of "CCCCc1c(I)nc(CO)n1Cc1ccc(-c2ccccc2-c2nn[nH]n2)cc1" 7.35

Now the molecule "CCCCc1cnc(C=O)n1Cc1ccc(-c2ccccc2-c2nn[nH]n2)cc1" 7.76

Now the molecule "CCCCc1cnc(C(=O)O)n1Cc1ccc(-c2ccccc2-c2nn[nH]n2)cc1" 7.83

Now the molecule "CCCCc1c(Cl)nc(CO)n1Cc1ccc(-c2ccccc2-c2nn[nH]n2)cc1" 6.98

Now the molecule "CCCCc1c(Br)nc(CO)n1Cc1ccc(-c2ccccc2-c2nn[nH]n2)cc1" 7.58
